The reader will find reported melting point values listed item by item below.

Here's what some known entries look like.
>  <compound>
CCOC(=O)CCn1c(C(=O)Nc2nc(-c3cc(OC)c(Cl)cc3OC)c(CCC3CCCCC3)s2)cc2ccccc21

>  <value-type>
melting point

>  <test-value>
79 to 85 °C

$$$$
>  <compound>
CCOC(=O)CS(=O)CCSc1cc(C(C)(C)C)c(O)c(C(C)(C)C)c1 (stereo unspecified)

>  <value-type>
melting point

>  <test-value>
110 °C

$$$$
>  <compound>
CCCCc1cc2cc([N+](=O)[O-])ccc2[nH]1

>  <value-type>
melting point

>  <test-value>
105 °C

$$$$
>  <compound>
C[Si](C)(C)c1c(CCC=O)cnc2c1CCO2

>  <value-type>
melting point

>  <test-value>
59 to 60 °C

$$$$

Consider `O=P(O)(O)C(O)(CCc1nn(-c2ccc(F)cc2)cc1-c1ccc(Cl)cc1)P(=O)(O)O` . Its measured melting point is 223 °C

Consider `O=S(=O)(c1ccccc1Cl)N1CCNc2ncc(I)cc21` . Its measured melting point is 146 to 147 °C

Consider `COc1ncc(Cc2nnc(Nc3ccc(C(C)(C)C)cc3)c3ccccc23)cc1-c1ccco1` . Its measured melting point is 180 to 182 °C

Consider `O=C(O)CC(=O)Nc1ccc(Br)cc1C(=O)O` . Its measured melting point is 203 to 206 °C

====

The reader will find reported melting point values listed item by item below.

Here's what some known entries look like.
>  <compound>
CCCC(=O)c1ccccc1NC(C)=O

>  <melting point>
46.5 to 47 °C

$$$$
>  <compound>
Cc1cc(COC2CCCCO2)nc(N)n1 (stereo not given)

>  <melting point>
109 to 110 °C

$$$$
>  <compound>
COc1ccc(/C(C)=C/c2ccc(C(=O)O)cc2)cc1C12CC3CC(CC(C3)C1)C2

>  <melting point>
307 to 308 °C

$$$$
>  <compound>
CC(C)OC(=O)c1cc(NC(=O)c2c(Cl)c(Cl)c(Cl)c(Cl)c2C(=O)O)ccc1Cl

>  <melting point>
178 to 179 °C

$$$$

Continue with the next compound.
Consider `O=c1c2ccc3cc[nH]c3c2ccn1Cc1ccccc1` . Its measured melting point is 211 to 213 °C

====

The reader will find reported melting point values listed item by item below.

Here's what some known entries look like.
>  <compound>
CC(CC(=O)O)CC(=O)CCCCCCCCCCC(=O)O (stereo not drawn)

>  <melting point>
84 to 85 °C

$$$$
>  <compound>
CC(C)(C)OC(=O)C(CCCCNC(=O)c1ccc(Cl)c(S(N)(=O)=O)c1)NC1Cc2ccccc2C1 (stereo not drawn)

>  <melting point>
65 to 68 °C

$$$$
>  <compound>
CCCCCCCCCCCCCCCCCC1OCC(COC(O)CCC)O1 (stereo not drawn)

>  <melting point>
34 to 44 °C

$$$$

Consider `N#CCOc1ccc(C(=O)c2ccccc2)c(Cl)c1Cl` . Its measured melting point is 110 to 112 °C

Consider `CC1(C)Cc2c(N)c(Cl)cc(C(=O)NC3CCN(CCCC4(C)OCCO4)CC3)c2O1` . Its measured melting point is 136 °C

Consider `COc1cc(-c2ncn(C)c2-c2ccc(C(F)(F)F)cc2)cc(OC)c1OC` . Its measured melting point is 168 °C
